Target: HLA-A*11:01 protein (Homo sapiens, UniProt P04439, A114D/D185E/E176A/F33Y/L180Q/S129P/T187R)
Construct: biotin (biotinylated)
Test: Bio-Layer Interferometry (BLI) affinity test, Octet R8
Settings: Octet R8, SSA sensors, peptides 100-3.125 µM in PBST (PBS+0.02%Tween20+1% DMSO), balance, binding, dissociation 60 s each
Where no end group is shown, it is not given here.
The following sequences are listed with their measured pKd values.
Scale explanation: pKd corresponds to minus log10 of a concentration expressed in moles per litre.

Any idea what its pKd is? The sequence is FSTFKCYGV [reference compound] 4.54

Continue with GVSPTKLNDL [reference compound] 3.18

Continue with KCYGVSPTK [reference compound] 4.63

Origin of values: paper PMC9006954
